Target: Translocator protein (Homo sapiens)
Settings: Compound concentration 10 µM
Description: PDSP Primary Binding target: TSPO - Compounds are tested at 10 uM concentration, plate are incubated at room temperature in the dark for 90 minutes. Reaction are stopped by vacuum filtration onto 0.3% polyethyleneimine soaked filter mats using Filtermate harvester. Scintilation cocktail is then melted onto microwave-dried filters on a hot plate and the radio activity is counted in Microbia counter.
quantity name: inhibition

Input: Can you look up inhibition on Translocator protein (Homo sapiens) for C/C(=N\NC(=O)[C@@H]1C(=O)NC[C@H]1c1ccccc1)c1cccc(Br)c1 ?
Output: 46.9%

Input: Can you look up inhibition on Translocator protein (Homo sapiens) for COc1cc2nc(N3CCN(C(=O)c4ccco4)CC3)nc(N)c2cc1OC ?
Output: 75.9%

Input: Can you look up inhibition on Translocator protein (Homo sapiens) for CN1C(=O)[C@@H](NC(=O)c2cc3ccccc3[nH]2)N=C(c2ccccc2)c2ccccc21 ?
Output: 59.1%

Input: Can you look up inhibition on Translocator protein (Homo sapiens) for Nc1nc2c(c(N3CCNCC3)n1)CCC1=C2[C@@H]2CCCC[C@@H]2O1 ?
Output: -6.86%

Input: Can you look up inhibition on Translocator protein (Homo sapiens) for O=C(O)C1CN(Cc2ccc(OCc3ccc(Cl)c(Cl)c3)cc2)C1 ?
Output: 3.35%

Input: Can you look up inhibition on Translocator protein (Homo sapiens) for CN1C[C@H](C(=O)N[C@]2(C)O[C@@]3(O)[C@@H]4CCCN4C(=O)[C@H](Cc4ccccc4)N3C2=O)C[C@@H]2c3cccc4[nH]cc(c34)C[C@H]21 ?
Output: 19%

Input: Can you look up inhibition on Translocator protein (Homo sapiens) for c1ccc(N2CCN(Cc3nc4ccccc4[nH]3)CC2)nc1 ?
Output: 6.18%

Input: Can you look up inhibition on Translocator protein (Homo sapiens) for Clc1cccc(COc2cncc(N3CCNCC3)n2)c1 ?
Output: 36.1%

Input: Can you look up inhibition on Translocator protein (Homo sapiens) for CS(=O)(=O)NC[C@H]1CC[C@H](Nc2nc3c(s2)CCSc2ccccc2-3)CC1 ?
Output: 35.9%

Input: Can you look up inhibition on Translocator protein (Homo sapiens) for O=C(Nc1ccc(Cl)cc1)Nc1cccc(-c2cccc(N3CCCC3)n2)c1 ?
Output: 34.9%

Input: Can you look up inhibition on Translocator protein (Homo sapiens) for CCCCc1nc(Cl)c(CO)n1Cc1ccc(-c2ccccc2-c2nnn[nH]2)cc1 ?
Output: 5.8%

Input: Can you look up inhibition on Translocator protein (Homo sapiens) for CCOC(=O)c1c(C)[nH]c2ccc3c(c12)CN1CCc2cc(OC)ccc2C1O3 (stereo not given) ?
Output: 28.3%

Input: Can you look up inhibition on Translocator protein (Homo sapiens) for CCc1nn(CCCN2CCN(c3cccc(Cl)c3)CC2)c(=O)n1CCOc1ccccc1 ?
Output: 64.2%

Input: Can you look up inhibition on Translocator protein (Homo sapiens) for N=C(N)SCCc1c[nH]cn1 ?
Output: 5.09%

Input: Can you look up inhibition on Translocator protein (Homo sapiens) for COc1ccc(C2(O)OC(=O)C(c3ccc4c(c3)OCO4)=C2Cc2cc(OC)c(OC)c(OC)c2)cc1 (stereo not given) ?
Output: 37%

Input: Can you look up inhibition on Translocator protein (Homo sapiens) for C[N+]1(C)[C@@H]2C[C@@H](OC(=O)C(O)(c3cccs3)c3cccs3)C[C@H]1[C@@H]1O[C@@H]12 ?
Output: 66.3%

Input: Can you look up inhibition on Translocator protein (Homo sapiens) for N#Cc1ccc2[nH]cc(CCCCN3CCN(c4ccc5oc(C(N)=O)cc5c4)CC3)c2c1 ?
Output: -4.35%

Input: Can you look up inhibition on Translocator protein (Homo sapiens) for Cc1cn2cc(CC(=O)N3CCC4(CC3)CN(Cc3ccc(-n5nccn5)cc3Cl)C4)nc2s1 ?
Output: 0.99%

Input: Can you look up inhibition on Translocator protein (Homo sapiens) for Cc1ccc2c(c1)c1c(n2CCc2ccc(C)nc2)CCN(C)C1 ?
Output: 11.9%

Input: Can you look up inhibition on Translocator protein (Homo sapiens) for C[C@@H](NCCCc1cccc(C(F)(F)F)c1)c1cccc2ccccc12 ?
Output: 13.5%
